Where do the numbers come from? From the DeepSol protein solubility set.

Assay: soluble on expression in E. coli; label from the status in PepcDB or PDB records
MEASUREMENT LABEL: soluble on expression in E. coli

INSERT INTO measurements (seq, value) VALUES
  ('AEQLRGEPWFHGKLSRREAEALLQLNGDFLVRESTTTPGQYVLTGSQSGQPKHLLLVDPEGVVRTKDHRFESVSHLISYHMDNHLPIISAGSELCLQQPVERKLLEH', 'soluble'),
  ('MRWAPVTYTVGSSSVGSFPAVQWRGINTPTQIVFSLSSSEVRSYRLRIFVPLAQVSARPQIAVNARWNGPVPAAPNQPKTRGITRGTTRGNNTLCEVDIPATALQAGSNRIAISLASGSPDNGFLSPAIVYDSVQLVAPLEHHHHHH', 'not soluble'),
  ('MKGQVVSLHLGLGSGLPKPRVEALELVAGFGAKGDRHAGKDPDRAVLVAGLSAYEKAQGAGIPLPYGALGENLLLDLDPHALPPGARLRVGEALLELSQVCPVCKSLSQFDLRLPKLLYGGRGVYARVLEGGVVRVGDPVLVLAPAR', 'soluble'),
  ('MKWKEQAIILGTRQYGETSVILEVMTRQHGRYMGVVKGGRSRRMAVLLQPGNFVEAEWWARLDEHLGLFRLEALDLHAARLILFPEALYALQLIVFHLHLLPERDPHPILYDILHLFMQSFDEPFINAELLVRFEMRFLEELGFGLDLSRCAATGRLEKLCYVSPKSGRAVCEEAGHPWREKLLNLPQFLVQRTVRPVDFSDIKNGFILTGFFLMRHVWEPRNIKQPSVRISLIQLFEQRFRMQASFVDLKTINRM', 'not soluble');

###

Experiment: soluble on expression in E. coli; label from the status in PepcDB or PDB records
MEASUREMENT LABEL: soluble on expression in E. coli

INSERT INTO assay_data (seq, value) VALUES
  ('QVQLQQPGTELVRPGASVILSCKASGYTFTSYWINWVKQRPGQGLEWVGNIFPSDSYTNYNQKFKDKATLTVDKSSSTAYMQVNSPTSEDSAVYYCTRGARDTWFAYWGQGTLVTVSVAKTTPPSVFPLAPGSAAQTNSMVTLGCLVKGYFPEPVTVTWNSGSLSSGVHTFPAVLQSDLYTLSSSVTVPSSTWPSETVTCNVAHPASSTKVDKKIVPRDC', 'soluble'),
  ('MVFDAIVVTDLQGFIIDWNKGSETLYGYSKEQAIGQPVNMLHVPGDTEHITSEVISAVENQGKWTGEIRMLHKDGHIGWIESMCVPIYGENYQMVGALGINRDITKRKKELEHHHHHH', 'not soluble'),
  ('MAAHELKEALETLKETGVRITPQRHAILEYLVNSMAHPTADDIYKALEGKFPNMSVATVYNNLRVFRESGLVKELTYGDASSRFDFVTSDHYHAICENCGKIVDFHYPGLDEVEQLAAHVTGFKVSHHRLEIYGVCQECSKKENH', 'soluble'),
  ('MGLCLAKRNHDADDDEPHIELAGGNVHLITTKERWDQKLSEASRDGKIVLANFSARWCGPCKQIAPYYIELSENYPSLMFLVIDVDELSDFSASWEIKATPTFFFLRDGQQVDKLVGANKPELHKKITAILDSLPPSDK', 'soluble'),
  ('MDHHSKAKELLQQRDELDGKIKELMLVLETNNSTMDSPLLDAEGYPLNTIDVYAVRHARHDLICLRNDRAALTEKIVVEMENENKEVSGQTATSEEKPVHRTSNEPFVKISSVVELSPADIGGFRKDDLIIQYGNLHHGNFNDMQEVAQITKQSEDKIIRVTVIRENRPVRLEICPKKWSGPGLLGCNIVPISGANV', 'not soluble'),
  ('MLPEKRLLTPDDMKLWEESPTRAHFTKFIIDLAESVKGHENSQYKEPISESINSMMNLLSQIKDITQKHPVIKDADSSRFGKVEFRDFYDEVSRNSRKILRSEFPSLTDEQLEQLSIYLDESWGNKRRIDYGSGHELNFMCLLYGLYSYGIFNLSNDSTNLVLKVFIEYLKIMRILETKYWLEPAGSHGVWGLDDYHFLPFLFGAFQLTTHKHLKPISIHNNELVEMFAHRYLYFGCIAFINKVKSSASLRWHSPMLDDISGVKTWSKVAEGMIKMYKAEVLSKLPIMQHFYFSEFLPCPDGVSPPRGHIHDGTDKDDECNFEGHVHTTWGDCCGIKLPSAIAATEMNKKHHKPIPFD', 'soluble'),
  ('MVMATRVKNVGNWRIMPDATLAASYQAYKRCQNRRPDKAFTPHPAISAPMPDATLAASYQACKMCQNRVGRIRRSRRIRQLEHHHHHH', 'not soluble'),
  ('MSLKHLWFEKGAYASKAARQYLNDHFNPLAVKKTAVIRHAALGDQVIVRPFLVEARKFFPNAEITLVTVSNYLYGTPSDLADKTVIMKSRDDSKQLSLRQKWQDYNQLEAQDIIFDVAGTNRSYWMTLLTKAKLKVGFPYKPFLCGTLYNLAVFRSDFQPEVECMLDMLKILGHNPSYPLDFAYPDNRQICDHAAPYIVYFSGASQLRKILTKPEMRAVIEQTIQQQPNVKHVFLEGKNEFEKGEYLQDLADNGSLTIQPCLPLDDLVTFIAKATLVIAPDTGIRNVAISTHTPTVGIFYATVPFRYTPLYEAHTIVMNANGEKPSTEQITSAIDTTLKMRLAAAKNTQEQEGHHHHHH', 'soluble'),
  ('MSLEKKDTNSLKLLLIGNTGIGEYKSRAERKGLWYKLKRFLWTNEFDQTVSALAKWHAEEKADAVLGLGDFLGIPGPLSARDERFTKRWYDIFVKDAKLDIPWLMTLGEEEALVNPSASVRHHYTGEHPNWYMPNDAYTATFSFSTSMTMANGTIQHEAFNATVINVNTWNLFVGNPIANNMQSMMDRLMWLSDQLYTAVNQTTNWLIIMGHLPLVSTGPQGEQGRLQYVDDLYKNGQPRGPEAVLIQMLLSHYQVDLYVSAHDHFMEYVALEDLSKNTTTAFITSGAAVRLLDKDVGRGWIGRLRGALYPILCWSGRRILYAFHPGEGHHHHHH', 'not soluble'),
  ('MKMDYILSDFAQKQGYAVESYEIVDSTNYIAQQKAHAGHHGYLWVVAKEQSQGRARRGRTWSSPKGNLYSSLLLVEDIVHQTAAQLGFVAGVSVVETIKQFIKDEKQTSDIVSLKWPNDILLRGAKSSGILLEIFKLPSQQYALVIGIGINVKYHYEDAPYPTSSLKNIGLDIETEQLFTVLTEYFSKNYLLWKQLGGCDRIREKWLLYSAHSGQYVKIVNDEKIIEGIFDGLDNDFNCVIKQKNGQQAVITAGDVHFGSSASVNAGCY', 'not soluble'),
  ('MAESSVTFTISTDGGGKINVIYDGSHKTNATDSSVNSESVTPCESLDTTKESEMLKAGLRRRAPSISTESSVTFSSISDFEDLNLRCSTPLVCDDDTNSNSDASFASCVSEVSEMSIKTTSSQETVTSASGLKESKPMEKMEEKREVRMKSYEQVNKERYGGWTEVVNWRAAKKPQSVAPSQSSTKKTLSNNGTTTDHGITSASRRTPNSTHVASKPQLNTRATSVQGSAPSSGSKSRIPSLANRQVYNNSPQLFHPFPPSRCNSSNGSYASTVTASPSVASYSPNPSQPPPPVAVAKLNMKMTITTDSNGKMSVHFSNSNSSESWSINGLLGNSDKINVSKMF', 'not soluble'),
  ('MAHHHHHHMCHLCDVPVITPDKGVIQSGCGLHPKKTLGNGGAGGVHPGKNTTQETGFPTTGGPNNQHIHLRLCDLVLPRVEYNILPQIFRGVNRDLRHSWSILGGQCGTVKVRRVSLQHAVGATRLHVSVQETAPPFPLHGVTPPLHPLCGAHKLDGQFTDTAGQRTTRPLYTSHTRRIPTAFSLFYSPFFCVPSSNRAPSSSALHVPLTRRWQKGRRRLGTSHARTPRPHSPK', 'not soluble');

###

Test: soluble on expression in E. coli; label from the status in PepcDB or PDB records
MEASUREMENT LABEL: soluble on expression in E. coli

INSERT INTO results (seq, measurement_label, value) VALUES
  ('MSGFSTEERAAPFSLEYRVFLKNEKGQYISPFHDIPIYADKDVFHMVVEVPRWSNAKMEIATKDPLNPIKQDVKKGKLRYVANLFPYKGYIWNYGAIPQTWEDPGHNDKHTGCCGDNDPIDVCEIGSKVCARGEIIGVKVLGILAMIDEGETDWKVIAINVDDPDAANYNDINDVKRLKPGYLEATVDWFRRYKVPDGKPENEFAFNAEFKDKDFAIDIIKSTHDHWKALVTKKTNGKGISCMNTTLSESPFKCDPDAARAIVDALPPPCESACTVPTDVDKWFHHQKN', 'soluble on expression in E. coli', 'soluble'),
  ('MGRAELLEGKMSTQDPSDLWSRSDGEAELLQDLGWYHGNLTRHAAEALLLSNGCDGSYLLRDSNETTGLYSLSVRAKDSVKHFHVEYTGYSFKFGFNEFSSLKDFVKHFANQPLIGSETGTLMVLKHPYPRKVEEPSIYESVRVHTAMQTGRTEDDLVPTAPSLGTKEGYLTKQGGLVKTWKTRWFTLHRNELKYFKDQMSPEPIRILDLTECSAVQFDYSQERVNCFCLVFPFRTFYLCAKTGVEADEWIKILRWKLSQIRKQLNQGEGTIRSRSFIFK', 'soluble on expression in E. coli', 'soluble');
